Molecular target: Angiotensin-converting enzyme (Oryctolagus cuniculus, UniProt P12822)
Sequence (P12822 whole entry): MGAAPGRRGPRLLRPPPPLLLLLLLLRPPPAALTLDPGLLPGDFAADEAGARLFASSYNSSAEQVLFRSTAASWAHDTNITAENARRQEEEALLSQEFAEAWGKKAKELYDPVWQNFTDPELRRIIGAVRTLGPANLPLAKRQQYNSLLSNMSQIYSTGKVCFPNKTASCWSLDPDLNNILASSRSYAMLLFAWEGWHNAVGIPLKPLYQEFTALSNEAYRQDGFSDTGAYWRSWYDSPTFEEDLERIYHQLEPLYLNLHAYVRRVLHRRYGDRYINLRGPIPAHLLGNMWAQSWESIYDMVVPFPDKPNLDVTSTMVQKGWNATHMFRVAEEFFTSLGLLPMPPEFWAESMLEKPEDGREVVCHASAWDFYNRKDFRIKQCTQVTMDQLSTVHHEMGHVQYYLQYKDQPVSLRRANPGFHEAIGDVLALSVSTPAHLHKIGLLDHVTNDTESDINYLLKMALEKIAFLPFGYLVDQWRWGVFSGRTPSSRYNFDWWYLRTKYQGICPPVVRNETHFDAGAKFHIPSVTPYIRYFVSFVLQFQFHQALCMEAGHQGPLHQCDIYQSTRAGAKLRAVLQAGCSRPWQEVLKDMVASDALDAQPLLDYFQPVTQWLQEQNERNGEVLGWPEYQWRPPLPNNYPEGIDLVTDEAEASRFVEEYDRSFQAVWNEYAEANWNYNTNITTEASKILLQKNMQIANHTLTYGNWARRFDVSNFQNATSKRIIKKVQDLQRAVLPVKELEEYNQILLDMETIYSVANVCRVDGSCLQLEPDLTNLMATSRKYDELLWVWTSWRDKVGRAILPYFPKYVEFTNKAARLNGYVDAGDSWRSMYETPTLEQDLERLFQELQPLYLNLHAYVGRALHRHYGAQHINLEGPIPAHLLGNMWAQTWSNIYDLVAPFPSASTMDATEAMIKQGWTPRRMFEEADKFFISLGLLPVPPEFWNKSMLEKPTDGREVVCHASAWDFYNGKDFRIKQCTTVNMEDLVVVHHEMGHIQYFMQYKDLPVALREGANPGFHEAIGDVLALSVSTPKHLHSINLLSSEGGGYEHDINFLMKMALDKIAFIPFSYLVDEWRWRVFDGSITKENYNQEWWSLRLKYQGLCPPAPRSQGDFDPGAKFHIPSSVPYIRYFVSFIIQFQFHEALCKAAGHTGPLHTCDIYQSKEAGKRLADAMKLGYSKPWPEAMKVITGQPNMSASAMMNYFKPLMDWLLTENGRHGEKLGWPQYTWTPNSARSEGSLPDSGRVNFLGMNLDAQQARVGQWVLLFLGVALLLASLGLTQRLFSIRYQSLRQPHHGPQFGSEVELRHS
Assay: Inhibition of rabbit lung angiotensin I converting enzyme (ACE) using hippuryl-histidyl-leucine as substrate
Settings: read-out: I50
TEST_READOUT: IC50
Answer format: number, then unit.

If you can, please state the reported IC50 value of NCCCC[C@H](OP(=O)(O)CCCCc1ccccc1)C(=O)N1C[C@@H](Sc2ccccc2)C[C@H]1C(=O)O .
3 nM

If you can, please state the reported IC50 value of NCCCC[C@H](OP(=O)(O)CCCCc1ccccc1)C(=O)N1CSC[C@H]1C(=O)O .
91 nM

If you can, please state the reported IC50 value of NCCCC[C@H](OP(=O)(O)CCCCc1ccccc1)C(=O)N1[C@H](C(=O)O)C[C@@H]2CCCC[C@@H]21 .
28 nM

If you can, please state the reported IC50 value of NCCCC[C@H](OP(=O)(O)CCCCc1ccccc1)C(=O)N1CC(F)(F)C[C@H]1C(=O)O .
170 nM

If you can, please state the reported IC50 value of NCCCC[C@H](OP(=O)(O)CCCCc1ccccc1)C(=O)N1CCS[C@H]1C(=O)O .
81 nM

If you can, please state the reported IC50 value of NCCCC[C@H](OP(=O)(O)CCCCc1ccccc1)C(=O)N1C[C@@H](C2CCCCC2)C[C@H]1C(=O)O .
11 nM

If you can, please state the reported IC50 value of CSC1(SC)C[C@@H](C(=O)O)N(C(=O)[C@H](CCCCN)OP(=O)(O)CCCCc2ccccc2)C1 .
16 nM

If you can, please state the reported IC50 value of NCCCC[C@H](OP(=O)(O)CCCCc1ccccc1)C(=O)N1C[C@H](Sc2ccccc2)C[C@H]1C(=O)O .
2.6 nM

If you can, please state the reported IC50 value of NCCCC[C@H](OP(=O)(O)CCCCc1ccccc1)C(=O)N1C[C@@H](O)C[C@H]1C(=O)O .
25 nM

If you can, please state the reported IC50 value of NCCCC[C@H](OP(=O)(O)CCCCc1ccccc1)C(=O)N1CC2(C[C@H]1C(=O)O)SCCS2 .
1.5 nM

====

Target: Angiotensin-converting enzyme (Oryctolagus cuniculus)
Experiment: Evaluated for inhibitory activity against rabbit lung angiotensin I converting enzyme (ACE) using hippuryl-histidyl-leucine as substrate
Details: read-out: I50
TEST_READOUT: IC50 (nM)
Numeric answer only, unit nM assumed.

If you can, please state the reported IC50 value of NCCCC[C@H](OP(=O)(O)CCCCc1ccccc1)C(=O)N(CC(=O)O)c1ccccc1 .
29

If you can, please state the reported IC50 value of NCCCC[C@H](OP(=O)(O)CCCCc1ccccc1)C(=O)N(CC(=O)O)C1Cc2ccccc2C1 .
27

====

What inhibition was measured for each of the following?
Molecular target: Angiotensin-converting enzyme (Rattus norvegicus)
Assay: In vivo oral activity in normotensive rat and percent maximal inhibition of the angiotensin I pressor response
Type: functional, organism-based
Numeric answer only, unit % assumed.

If you can, please state the reported inhibition value of COc1ccc(N(CC(=O)O)C(=O)[C@H](CCCCN)OP(=O)(O)CCCCc2ccccc2)cc1OC .
62

If you can, please state the reported inhibition value of CS[C@@H]1C[C@@H](C(=O)O)N(C(=O)[C@H](CCCCN)OP(=O)(O)CCCCc2ccccc2)C1 .
16

If you can, please state the reported inhibition value of NCCCC[C@H](OP(=O)(O)CCCCc1ccccc1)C(=O)N1C[C@@H](c2ccccc2)C[C@H]1C(=O)O .
58

If you can, please state the reported inhibition value of NCCCC[C@H](OP(=O)(O)CCCCc1ccccc1)C(=O)N1[C@H](C(=O)O)C[C@@H]2CCC[C@@H]21 .
41

If you can, please state the reported inhibition value of NCCCC[C@H](OP(=O)(O)CCCCc1ccccc1)C(=O)N1CC=C[C@H]1C(=O)O .
73

If you can, please state the reported inhibition value of CS[C@H]1C[C@@H](C(=O)O)N(C(=O)[C@H](CCCCN)OP(=O)(O)CCCCc2ccccc2)C1 .
8

If you can, please state the reported inhibition value of NCCCC[C@H](OP(=O)(O)CCCCc1ccccc1)C(=O)N1c2ccccc2C[C@H]1C(=O)O .
13

If you can, please state the reported inhibition value of NCCCC[C@H](OP(=O)(O)CCCCc1ccccc1)C(=O)N1CSC[C@H]1C(=O)O .
46

If you can, please state the reported inhibition value of NCCCC[C@H](OP(=O)(O)CCCCc1ccccc1)C(=O)N1C[C@@H](Sc2ccccc2)C[C@H]1C(=O)O .
15

If you can, please state the reported inhibition value of NCCCC[C@H](OP(=O)(O)CCCCc1ccccc1)C(=O)N1C[C@@H](C2CCCCC2)C[C@H]1C(=O)O .
33

If you can, please state the reported inhibition value of NCCCC[C@H](OP(=O)(O)CCCCc1ccccc1)C(=O)N1CCC[C@H]1C(=O)O .
90

If you can, please state the reported inhibition value of NCCCC[C@H](OP(=O)(O)CCCCc1ccccc1)C(=O)N(CC(=O)O)C1CCCCC1 .
31

If you can, please state the reported inhibition value of NCCCC[C@H](OP(=O)(O)CCCCc1ccccc1)C(=O)N(CC(=O)O)c1ccc2c(c1)OCO2 .
69

If you can, please state the reported inhibition value of NCCCC[C@H](OP(=O)(O)CCCCc1ccccc1)C(=O)N1C[C@H](C2CCCCC2)C[C@H]1C(=O)O .
15

If you can, please state the reported inhibition value of NCCCC[C@H](OP(=O)(O)CCCCc1ccccc1)C(=O)N1C[C@@H](Cc2ccccc2)C[C@H]1C(=O)O .
14

If you can, please state the reported inhibition value of NCCCC[C@H](OP(=O)(O)CCCCc1ccccc1)C(=O)N1CCS[C@H]1C(=O)O .
50

If you can, please state the reported inhibition value of COc1ccc(N(CC(=O)O)C(=O)[C@H](CCCCN)OP(=O)(O)CCCCc2ccccc2)cc1 .
40

If you can, please state the reported inhibition value of NCCCC[C@H](OP(=O)(O)CCCCc1ccccc1)C(=O)N(CC(=O)O)c1ccccc1 .
53

If you can, please state the reported inhibition value of NCCCC[C@H](OP(=O)(O)CCCCc1ccccc1)C(=O)N1C[C@@H](O)C[C@H]1C(=O)O .
69

If you can, please state the reported inhibition value of NCCCC[C@H](OP(=O)(O)CCCCc1ccccc1)C(=O)N1[C@H](C(=O)O)C[C@@H]2CCCC[C@@H]21 .
14

If you can, please state the reported inhibition value of NCCCC[C@H](OP(=O)(O)CCCCc1ccccc1)C(=O)N1CC2(C[C@H]1C(=O)O)SCCS2 .
51

If you can, please state the reported inhibition value of NCCCC[C@H](OP(=O)(O)CCCCc1ccccc1)C(=O)N1C[C@H](Sc2ccccc2)C[C@H]1C(=O)O .
11

If you can, please state the reported inhibition value of NCCCC[C@H](OP(=O)(O)CCCCc1ccccc1)C(=O)N1CC(F)(F)C[C@H]1C(=O)O .
49

If you can, please state the reported inhibition value of CSC1(SC)C[C@@H](C(=O)O)N(C(=O)[C@H](CCCCN)OP(=O)(O)CCCCc2ccccc2)C1 .
45
